# Target or test system: human α1H T-type channels (Homo sapiens)
# Construct: expressed in transfected cells; host or cells: HEK 293
# Measurement notes: T-type calcium channel block, whole cell patch clamp in HEK cells (α1H)
# Assay type: cell-based
# Condition details: HEK cells, patch clamp, mainly non-inactivated protocol; values above 10 μM shown as 10 μM; read-out: T-type Calcium Channel Block α1H IC50
Endpoint: pIC50
# pIC50 is unitless: minus log10 of the molar concentration; print number only

Input line: // returns reported pIC50 for input CC(C)(C)OC(=O)N1CCC(O)(CN2CCC(CNC(=O)c3cc(F)cc(Cl)c3)CC2)CC1
Output line: 5.78

Input line: Consider the compound shown here: Cc1cc(F)cc(C(=O)NCC2CCN(CCNS(=O)(=O)C(C)(C)C)CC2)c1 What is its recorded pIC50?
Output line: 5.98

Input line: Data request, read-out pIC50, for O=C(NCC1CCN(C2CN(C(=O)C3(C(F)(F)F)CCC3)C2)CC1)c1cc(F)cc(Cl)c1
Output line: 6.11

Input line: Would you mind telling me what pIC50 value was observed for CN(C(=O)CN1CCC(CNC(=O)c2cc(Cl)cc(Cl)c2)CC1)C(C)(C)C ?
Output line: 7.22

Input line: Item under review: O=C(CN1CCC(CNC(=O)c2cc(F)cc(Cl)c2)CC1)NC1(C2CCOCC2)CC1 . Reported pIC50?
Output line: 6.51

Input line: Quick check: pIC50 of O=C(NCC1CCN(C2CN(C(=O)c3cccc(Cl)c3)C2)CC1)c1cc(F)cc(Cl)c1 ?
Output line: 5.48

Input line: Can you share its pIC50? I mean this compound: CCCNC(=O)CN1CCC(CNC(=O)c2cc(F)cc(C(F)(F)F)c2)CC1
Output line: 5.89

Input line: So what's the measured pIC50 for this one? O=C(NCC1CCN(CCNS(=O)(=O)C2CC2)CC1)c1ccc(C(F)(F)F)c(F)c1
Output line: 6.14

Input line: Any idea what its pIC50 is? The compound is CC(C)(C)OC(=O)N1CC(N2CCC(CNC(=O)c3cc(F)cc(Cl)c3)CC2)C1
Output line: 5.19

Input line: Param item = CCCNC(=O)CN1CCC(CNC(=O)c2cc(F)cc(Cl)c2)CC1 ; retrieve measured pIC50.
Output line: 5.10

Input line: Which measured pIC50 value corresponds to O=C(NCC1CCN(C2CN(C(=O)c3cccc(OC(F)(F)F)c3)C2)CC1)c1cc(F)cc(Cl)c1 ?
Output line: 6.09

Input line: Using the record for CC(C)(C)NC(=O)CN1CCC(CNC(=O)c2cc(F)cc(Cl)c2)CC1 , report its pIC50.
Output line: 7.30

Input line: Can you look up the measured pIC50 of CCOC(=O)NC1(CN2CCC(CNC(=O)c3cc(C(F)(F)F)cc(C(F)(F)F)c3)CC2)CCCC1 for me?
Output line: 6.92

Input line: Which pIC50 is reported for this compound? COCC(C)(C)NC(=O)CN1CCC(CNC(=O)c2cc(F)cc(OC)c2)CC1
Output line: 6.46

Input line: Sample O=C(NC1CCCCC1)NC1(CN2CCC(CNC(=O)c3cc(C(F)(F)F)cc(C(F)(F)F)c3)CC2)CCCC1 — what was its pIC50?
Output line: 5.93

Input line: Using the record for CCCNC(=O)CN1CCC(CNC(=O)c2cc(F)cc(OC)c2)CC1 , report its pIC50.
Output line: 5.51

Input line: What value of pIC50 has been recorded for this entry: O=C(NCC1CCN(C(=O)CNC2CCCC2)CC1)c1cc(F)cc(C(F)(F)F)c1
Output line: 5.85

Input line: Bench note: what pIC50 did CC(C)(C)NCC(=O)N1CCC(CNC(=O)c2cc(F)cc(C(F)(F)F)c2)CC1 show?
Output line: 5.42

Input line: Sample CC(C)CS(=O)(=O)NCCN1CCC(CNC(=O)c2cc(F)cc(C(F)(F)F)c2)CC1 — what was its pIC50?
Output line: 6.70

---

# Target or test system: human α1H T-type channels (Homo sapiens)
# Construct: expressed in transfected cells; host or cells: HEK 293
# Measurement notes: T-type calcium channel block, whole cell patch clamp in HEK cells (α1H)
# Assay type: cell-based
# Condition details: HEK cells, patch clamp, mainly non-inactivated protocol; values above 10 μM shown as 10 μM; read-out: T-type Calcium Channel Block α1H IC50
pIC50: −log10 of the molar value.
Please enter rule met where pIC50 is greater than or equal to 6, and rule not met where it is lower.

Input line: Tell me whether pIC50 is at least 6 here: O=C(CN1CCC(CNC(=O)c2cc(C(F)(F)F)cc(C(F)(F)F)c2)CC1)NC1CC1
Output line: rule not met

Input line: # bool: pIC50 of CC(C)(NC(=O)CN1CCC(CNC(=O)c2cccc(OC(F)(F)F)c2)CC1)C(F)(F)F >= 6
Output line: rule met

Input line: Check if pIC50 >= 6 (inclusive). Item: Cc1cc(F)cc(C(=O)NCC2CCN(CC(=O)NC3CCCC3)CC2)c1
Output line: rule met

Input line: Exam item: decide whether the reported pIC50 for O=C(NCC1CCN(CCNS(=O)(=O)C(F)(F)F)CC1)c1ccc(OC(F)(F)F)cc1 is at least 6.
Output line: rule not met

Input line: Would you say NC1(CN2CCC(CC(=O)Nc3cc(C(F)(F)F)cc(C(F)(F)F)c3)CC2)CCCC1 shows pIC50 at minimum 6?
Output line: rule not met

Input line: Entry CC(C)(C)NC(=O)CN1CCC(CNC(=O)c2cc(Cl)cc(Br)c2)CC1 : is its pIC50 no less than 6?
Output line: rule met

Input line: Is pIC50 at least 6? Consider CC(C)(C)NC(=O)CN1CCC(CNC(=O)c2ccnc(N3CCCC3)c2)CC1
Output line: rule not met

Input line: Decide: pIC50 of CC(C)(C)C(O)CN1CCC(CC(=O)NCc2ccc(Oc3ccccc3)cc2)CC1 (stereo not drawn) >= 6?
Output line: rule not met

Input line: Quick check, pIC50 >= 6? C[C@@H]1CCCCN1CC(=O)N1CCC(CNC(=O)c2cc(C(F)(F)F)cc(C(F)(F)F)c2)CC1
Output line: rule not met

Input line: Assess whether reported pIC50 for CC1CCCCC1NC(=O)CN1CCC(CNC(=O)c2cc(C(F)(F)F)cc(C(F)(F)F)c2)CC1 (stereo not drawn) sits at 6 or higher.
Output line: rule met

Input line: Is it the case that CC1(C)COCCN1C(=O)CN1CCC(CNC(=O)c2cc(C(F)(F)F)cc(C(F)(F)F)c2)CC1 has pIC50 reaching or exceeding 6?
Output line: rule met

Input line: Has C[C@H]1CC[C@H](C(=O)NCCN2CCC(CNC(=O)c3cc(C(F)(F)F)cc(C(F)(F)F)c3)CC2)CC1 a recorded pIC50 greater than or equal to 6?
Output line: rule met

Input line: Item O=C(NCC1CCN(CCNC(=O)C2(C(F)(F)F)CC2)CC1)c1cc(F)cc(C(F)(F)F)c1 with pIC50 of 6 or above?
Output line: rule met

Input line: Record COc1cc(C(=O)NCC2CCN(CC(=O)NC(C)(C)C)CC2)cc(C(F)(F)F)c1 ; criterion: pIC50 no lower than 6. Met?
Output line: rule met

Input line: Hi, just wondering whether O=C(NCC1CCN(C2CN(C(=O)c3cc(F)cc(Cl)c3)C2)CC1)c1cc(F)cc(Cl)c1 shows pIC50 of 6 or higher.
Output line: rule not met

---

# Target or test system: human α1G T-type channels (Homo sapiens, UniProt O43497)
# Construct: expressed in transfected cells; host or cells: HEK 293
# Sequence (O43497 whole entry): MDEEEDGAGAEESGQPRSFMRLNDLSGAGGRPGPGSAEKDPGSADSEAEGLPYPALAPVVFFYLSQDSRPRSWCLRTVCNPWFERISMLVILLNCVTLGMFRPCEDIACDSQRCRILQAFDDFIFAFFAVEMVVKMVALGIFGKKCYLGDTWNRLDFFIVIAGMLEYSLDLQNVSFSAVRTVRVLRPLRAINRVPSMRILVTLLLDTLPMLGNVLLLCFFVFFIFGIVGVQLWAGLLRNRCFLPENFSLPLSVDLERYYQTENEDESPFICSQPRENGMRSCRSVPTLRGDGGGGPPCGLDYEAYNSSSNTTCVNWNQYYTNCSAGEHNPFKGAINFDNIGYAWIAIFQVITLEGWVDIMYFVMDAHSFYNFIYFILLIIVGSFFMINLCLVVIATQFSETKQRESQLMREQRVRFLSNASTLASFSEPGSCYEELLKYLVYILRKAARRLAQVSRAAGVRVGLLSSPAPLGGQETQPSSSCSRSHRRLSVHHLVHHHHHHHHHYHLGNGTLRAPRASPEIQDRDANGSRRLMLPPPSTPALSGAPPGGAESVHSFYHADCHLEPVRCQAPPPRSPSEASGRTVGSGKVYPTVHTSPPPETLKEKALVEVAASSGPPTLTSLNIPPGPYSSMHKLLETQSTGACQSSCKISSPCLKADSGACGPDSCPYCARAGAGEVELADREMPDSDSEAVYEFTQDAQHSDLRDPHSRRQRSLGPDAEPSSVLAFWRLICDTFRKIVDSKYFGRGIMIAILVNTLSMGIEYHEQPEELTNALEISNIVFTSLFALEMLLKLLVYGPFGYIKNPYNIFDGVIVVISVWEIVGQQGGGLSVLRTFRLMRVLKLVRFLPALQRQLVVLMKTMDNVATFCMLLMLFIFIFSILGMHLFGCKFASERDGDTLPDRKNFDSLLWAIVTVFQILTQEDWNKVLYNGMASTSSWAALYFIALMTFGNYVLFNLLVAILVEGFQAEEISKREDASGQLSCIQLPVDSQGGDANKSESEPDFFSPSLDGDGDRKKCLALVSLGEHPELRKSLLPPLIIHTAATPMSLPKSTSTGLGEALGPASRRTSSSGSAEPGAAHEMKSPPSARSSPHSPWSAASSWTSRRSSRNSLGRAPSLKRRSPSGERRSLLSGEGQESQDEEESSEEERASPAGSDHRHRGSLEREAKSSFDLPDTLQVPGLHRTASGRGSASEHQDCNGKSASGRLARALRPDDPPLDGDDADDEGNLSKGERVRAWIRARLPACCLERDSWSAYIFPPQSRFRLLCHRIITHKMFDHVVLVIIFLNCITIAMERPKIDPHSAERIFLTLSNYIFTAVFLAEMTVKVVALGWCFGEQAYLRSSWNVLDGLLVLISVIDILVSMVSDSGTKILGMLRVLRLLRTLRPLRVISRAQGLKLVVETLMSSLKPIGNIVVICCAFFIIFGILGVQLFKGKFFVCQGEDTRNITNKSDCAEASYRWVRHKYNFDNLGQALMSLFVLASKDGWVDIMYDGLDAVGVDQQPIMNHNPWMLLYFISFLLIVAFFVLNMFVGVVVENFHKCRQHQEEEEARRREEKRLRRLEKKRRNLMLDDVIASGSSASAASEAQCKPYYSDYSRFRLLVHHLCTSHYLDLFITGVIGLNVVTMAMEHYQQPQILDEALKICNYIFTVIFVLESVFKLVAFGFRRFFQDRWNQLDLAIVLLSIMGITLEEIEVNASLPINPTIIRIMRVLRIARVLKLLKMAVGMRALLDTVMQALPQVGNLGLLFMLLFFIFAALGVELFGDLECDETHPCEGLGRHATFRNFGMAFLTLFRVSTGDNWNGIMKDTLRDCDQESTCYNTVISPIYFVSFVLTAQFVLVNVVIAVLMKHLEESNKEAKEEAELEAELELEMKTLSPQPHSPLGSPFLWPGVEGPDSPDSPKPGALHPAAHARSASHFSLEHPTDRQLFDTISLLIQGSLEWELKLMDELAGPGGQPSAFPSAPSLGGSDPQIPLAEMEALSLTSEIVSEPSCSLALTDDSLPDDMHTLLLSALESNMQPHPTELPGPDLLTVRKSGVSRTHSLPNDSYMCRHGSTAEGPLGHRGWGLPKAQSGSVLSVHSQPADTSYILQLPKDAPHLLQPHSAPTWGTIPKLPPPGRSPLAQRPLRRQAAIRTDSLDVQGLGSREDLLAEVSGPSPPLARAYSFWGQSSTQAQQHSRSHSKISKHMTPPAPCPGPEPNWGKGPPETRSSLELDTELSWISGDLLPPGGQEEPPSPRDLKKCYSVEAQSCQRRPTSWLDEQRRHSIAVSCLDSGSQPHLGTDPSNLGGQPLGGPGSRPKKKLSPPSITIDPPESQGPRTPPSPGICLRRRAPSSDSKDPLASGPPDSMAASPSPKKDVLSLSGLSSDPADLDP
# Measurement notes: T-type calcium channel block, whole cell patch clamp in HEK cells (α1G)
# Assay type: cell-based
# Condition details: HEK cells, patch clamp, mainly non-inactivated protocol; values above 10 μM shown as 10 μM, below 0.30 μM shown as 0.30 μM; read-out: T-type Calcium Channel Block α1G IC50
Could you please report measured IC50 for the items listed next?

Input line: Query: IC50; subject: O=C(NCC1CCN(CCNS(=O)(=O)CCCF)CC1)c1cc(F)cc(C(F)(F)F)c1
Output line: 1230 nM

Input line: Reported IC50, molecule O=C(NCC1CCN(CCNC(=O)C2(C(F)(F)F)CCCC2)CC1)c1cc(F)cc(C(F)(F)F)c1 : ____
Output line: < 300 nM

Input line: Which IC50 value belongs to CC(C)(C)C(=O)NCCN1CCC(CNC(=O)/C=C/c2cc(Cl)cc(Cl)c2)CC1 ?
Output line: 2810 nM

Input line: Can you share its IC50? I mean this molecule: CC(C)S(=O)(=O)NCCN1CCC(CNC(=O)c2cc(F)cc(Cl)c2)CC1
Output line: 580 nM

---

For each of the compounds below, state its IC50.
# Target or test system: human α1H T-type channels (Homo sapiens, UniProt O95180)
# Construct: expressed in transfected cells; host or cells: HEK 293
# Sequence (O95180 whole entry): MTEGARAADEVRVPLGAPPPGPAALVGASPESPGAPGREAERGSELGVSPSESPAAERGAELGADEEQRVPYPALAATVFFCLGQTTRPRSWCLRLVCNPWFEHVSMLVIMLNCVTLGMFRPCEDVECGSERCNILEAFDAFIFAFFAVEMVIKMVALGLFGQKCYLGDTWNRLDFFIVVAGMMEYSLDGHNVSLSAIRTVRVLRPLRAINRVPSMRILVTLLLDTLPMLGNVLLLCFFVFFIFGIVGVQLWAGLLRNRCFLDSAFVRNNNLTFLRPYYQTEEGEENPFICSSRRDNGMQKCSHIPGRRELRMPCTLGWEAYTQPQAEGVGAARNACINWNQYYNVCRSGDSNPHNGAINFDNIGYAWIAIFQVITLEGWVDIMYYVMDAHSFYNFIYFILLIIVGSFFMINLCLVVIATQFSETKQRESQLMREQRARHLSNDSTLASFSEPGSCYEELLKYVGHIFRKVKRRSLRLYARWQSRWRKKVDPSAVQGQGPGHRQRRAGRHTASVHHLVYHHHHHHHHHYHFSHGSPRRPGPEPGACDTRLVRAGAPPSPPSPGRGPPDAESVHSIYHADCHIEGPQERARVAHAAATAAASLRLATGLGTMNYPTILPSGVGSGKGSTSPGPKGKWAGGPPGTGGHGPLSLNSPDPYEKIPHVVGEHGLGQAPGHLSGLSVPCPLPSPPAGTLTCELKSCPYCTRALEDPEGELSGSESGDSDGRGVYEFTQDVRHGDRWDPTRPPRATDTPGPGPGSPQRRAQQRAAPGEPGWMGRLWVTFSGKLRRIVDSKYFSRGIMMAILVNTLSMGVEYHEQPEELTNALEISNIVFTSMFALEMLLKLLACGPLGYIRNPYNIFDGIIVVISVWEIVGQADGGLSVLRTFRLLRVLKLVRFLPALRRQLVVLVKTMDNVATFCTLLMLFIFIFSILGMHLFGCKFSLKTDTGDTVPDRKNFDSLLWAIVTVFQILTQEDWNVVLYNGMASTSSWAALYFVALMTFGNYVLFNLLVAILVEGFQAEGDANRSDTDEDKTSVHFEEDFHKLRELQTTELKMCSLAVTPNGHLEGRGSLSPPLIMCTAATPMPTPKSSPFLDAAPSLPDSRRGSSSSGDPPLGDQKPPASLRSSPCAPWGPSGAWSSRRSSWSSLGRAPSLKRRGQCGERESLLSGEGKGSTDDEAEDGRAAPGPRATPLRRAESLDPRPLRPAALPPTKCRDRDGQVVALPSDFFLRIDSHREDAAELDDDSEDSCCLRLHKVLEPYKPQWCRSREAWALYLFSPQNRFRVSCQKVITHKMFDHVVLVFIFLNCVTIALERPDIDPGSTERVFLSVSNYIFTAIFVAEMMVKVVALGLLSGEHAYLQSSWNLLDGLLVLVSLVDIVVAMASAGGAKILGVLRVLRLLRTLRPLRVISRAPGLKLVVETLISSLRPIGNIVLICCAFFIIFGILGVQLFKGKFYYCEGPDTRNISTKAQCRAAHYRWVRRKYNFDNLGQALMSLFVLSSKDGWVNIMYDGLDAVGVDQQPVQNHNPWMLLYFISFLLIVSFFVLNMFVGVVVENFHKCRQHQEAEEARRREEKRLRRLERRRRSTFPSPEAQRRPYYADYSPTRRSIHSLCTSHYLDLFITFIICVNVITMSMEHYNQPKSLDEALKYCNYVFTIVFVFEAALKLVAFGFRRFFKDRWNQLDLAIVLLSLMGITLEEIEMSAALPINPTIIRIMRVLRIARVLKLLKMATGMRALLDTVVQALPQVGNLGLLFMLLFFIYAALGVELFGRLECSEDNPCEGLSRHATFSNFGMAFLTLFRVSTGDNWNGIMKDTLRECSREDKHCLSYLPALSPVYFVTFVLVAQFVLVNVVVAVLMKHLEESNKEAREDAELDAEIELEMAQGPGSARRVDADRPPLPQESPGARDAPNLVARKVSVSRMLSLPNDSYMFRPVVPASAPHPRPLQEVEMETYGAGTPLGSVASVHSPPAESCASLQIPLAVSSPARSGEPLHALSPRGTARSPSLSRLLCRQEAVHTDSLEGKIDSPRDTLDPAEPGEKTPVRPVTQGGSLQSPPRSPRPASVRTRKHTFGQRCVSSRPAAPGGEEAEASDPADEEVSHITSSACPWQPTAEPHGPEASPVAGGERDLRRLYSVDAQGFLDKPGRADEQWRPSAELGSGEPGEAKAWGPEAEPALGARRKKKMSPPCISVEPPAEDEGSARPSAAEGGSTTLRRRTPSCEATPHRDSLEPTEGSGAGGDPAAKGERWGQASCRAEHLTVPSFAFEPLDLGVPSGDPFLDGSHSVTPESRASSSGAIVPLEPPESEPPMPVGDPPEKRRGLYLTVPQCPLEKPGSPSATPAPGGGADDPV
# Measurement notes: T-type calcium channel block, whole cell patch clamp in HEK cells (α1H)
# Assay type: cell-based
# Condition details: HEK cells, patch clamp, mainly non-inactivated protocol; values above 10 μM shown as 10 μM; read-out: T-type Calcium Channel Block α1H IC50
# Procedure: T-type calcium channel blocking activity was assayed in human embryonic kidney cells, HEK 293, stably transfected with the T-type calcium channel subunits. […] Standard patch-clamp techniques were employed to identify blockers of T-type currents. […] Data were analyzed using Clampfit (Axon Instruments) and SigmaPlot 4.0 (Jandel Scientific). […]
All answers are understood in nM, so give the number only.

Input line: Which measured IC50 value corresponds to CC(C(=O)NC(C)(C)C)N1CCC(CNC(=O)c2cc(F)cc(Cl)c2)CC1 (centres unmarked) [Compound 546] ?
Output line: 130

Input line: Which value of IC50 has been reported for CC1(C(=O)NCCN2CCC(CNC(=O)c3cc(C(F)(F)F)cc(C(F)(F)F)c3)CC2)CC1 [Compound 337] in the records?
Output line: 370

Input line: Recorded IC50 of O=C(NCC1CCN(CCNS(=O)(=O)C(F)(F)F)CC1)c1cc(Br)cc(C(F)(F)F)c1 [Compound 115] , please.
Output line: 230

Input line: Query (compound): COc1cc(F)cc(C(=O)NCC2CCN(CC(=O)NC(C)(C)C(F)(F)F)CC2)c1 [Compound 456] ; field requested: IC50
Output line: 20

Input line: Look up IC50 for this compound: COC(=O)NC1(CN2CCC(CNC(=O)c3cc(C(F)(F)F)cc(C(F)(F)F)c3)CC2)CCCC1 [Compound 16]
Output line: 190

Input line: Given the entry CCC1CCCCN1CC(=O)N1CCC(CNC(=O)c2cc(C(F)(F)F)cc(C(F)(F)F)c2)CC1 (centres unmarked) [Compound 243] , report its measured IC50.
Output line: 810

Input line: Looking for the measured IC50 of CS(=O)(=O)NC1(CN2CCC(CNC(=O)c3cc(C(F)(F)F)cc(C(F)(F)F)c3)CC2)CC1 [Compound 357] , can you help?
Output line: 1270

Input line: Suppose we examine the compound CCOc1cc(OCC)cc(C(=O)NCC2CCN(CC(=O)NC(C)(C)C)CC2)c1 [Compound 377] ; what IC50 value has been reported?
Output line: 450

Input line: Reported IC50 for COc1cc(OC)cc(C(=O)NCC2CCN(CCNC(=O)C3(C(F)(F)F)CC3)CC2)c1 [Compound 500] : what is it?
Output line: 180

Input line: Given O=C(NCC1CCN(CC(=O)N2CCC(C(F)(F)F)CC2)CC1)c1cc(C(F)(F)F)cc(C(F)(F)F)c1 [Compound 108] , state its recorded IC50.
Output line: 250

Input line: Reported IC50 for CC(C)(C)OC(=O)NCCN1CCC(CNC(=O)c2cc(Cl)cc(Cl)c2)CC1 [Compound 43] : what is it?
Output line: 150

Input line: Fill in the blank: the reported IC50 of CN(CCN1CCC(CNC(=O)c2cc(F)cc(C(F)(F)F)c2)CC1)C(=O)C1(C(F)(F)F)CC1 [Compound 520] is ____.
Output line: 190

Input line: Reported IC50 for COc1cc(C(=O)NCC2CCN(CCNC(=O)C(C)(C)C)CC2)cc(C(F)(F)F)c1 [Compound 303] : what is it?
Output line: 600

Input line: Need IC50 of CS(=O)(=O)NC1(CN2CCC(CNC(=O)c3cc(C(F)(F)F)cc(C(F)(F)F)c3)CC2)CCCC1 [Compound 1] , thanks.
Output line: 370

Input line: Which IC50 value belongs to COc1cc(OC)cc(C(=O)NCC2CCN(CC(=O)NC(C)(C)C(F)(F)F)CC2)c1 [Compound 457] ?
Output line: 50

Input line: // query IC50 value for entry CN(CCN1CCC(CNC(=O)c2cc(F)cc(C(F)(F)F)c2)CC1)C(=O)C(C)(C)C [Compound 515]
Output line: 310

Input line: # input compound: COc1cc(F)cc(C(=O)NCC2CCN(CC(=O)NC3(C)CCC3)CC2)c1 [Compound 477] ; wanted: its IC50
Output line: 60

Input line: Report IC50 for CC(C)S(=O)(=O)NCCN1CCC(CNC(=O)c2cc(Br)cc(Br)c2)CC1 [Compound 319] please.
Output line: 150

Input line: Form field: reported IC50 of CC(C)(NC(=O)CN1CCC(CNC(=O)c2cccc(Cl)c2)CC1)C(F)(F)F [Compound 460]
Output line: 30

Input line: What value of measured IC50 is listed for COc1cc(Cl)cc(C(=O)NCC2CCN(CC(=O)N(C)C(C)(C)C)CC2)c1 [Compound 596] ?
Output line: 160

Hello, the source for this data is patent US8569344B2, in case you need it.
